- TEST_SUMMARY: Multiple dosing study in dogs: systemic exposure (plasma) to fexinidazole and its metabolites
- Assay type: in vivo, dog
- MEASUREMENT_PARAMETERS: male, dog, plasma, po, 200 mg/kg/day, Male Dog, 200 mg/kg/day oral, D14, mean ± SD, n = 3
- Experimental: In an embodiment, the fexinidazole may be administered to the canine as an aqueous oral suspension, comprising 5% TWEEN 80 and 0.5% Methyl cellulose 400 cP (METHOCEL). Provided in this format, fexinidazole suspensions of 5, 20, and 80 mg fexinidazole/mL may be prepared such that 10 mL of each concentration contains 50, 200, and 800 mg fexinidazole, respectively. […]
RECORDED_METRIC: Tmax (h)
// return numeric value only (unit: h, not printed)

Answer with the recorded Tmax for the compound listed here: CSc1ccc(OCc2ncc([N+](=O)[O-])n2C)cc1
1
